# Tested on: CD2F1 mice, L1210 leukemia ip, survival T/C
# assay.notes: NCI In Vivo Anticancer Drug Screen. Data for tumor model L1210 Leukemia (intraperitoneal) in CD2F1 (CDF1) mice
# assay.setup: endpoint: mean survival time; dose: 200.0 mg/kg/injection; schedule: Q01DX001 (ip); vehicle: saline with Tween-80; higher = longer survival
Toxic doses and inconclusive results are not listed.
For each of the compounds below, state its T/C.

Worked set:
NC(=S)OCCCCCn1cnc2c(=S)nc[nH]c21 ... 97 % of control
ICC(CI)(CI)CI ... 93 % of control

Each compound below has a reported value. Please supply its T/C.
1. CC(=O)Nc1nc(C)c(CC/C=C/c2ccc([N+](=O)[O-])cc2)c(Cl)n1
2. CC1CC(C)(C)N=C(Cc2ccccc2)O1 (configuration not stated)
3. CCOC(=O)NC(NC(=O)OCC)C(Cl)Cl
4. O=C1c2ccccc2C(=O)N1CO
5. BrC(Br)(c1ccccc1)C1OCCO1
6. O=C(O)CNC1CCCC1
7. O=C(Nc1ccc(CCO)cc1)Nc1ccc(F)c([N+](=O)[O-])c1

["89 % of control", "93 % of control", "105 % of control", "106 % of control", "102 % of control", "100 % of control", "96 % of control"]

# batch: return T/C for each of the 5 compounds below
1. CCN(CC)n1c(=O)[nH]n(CC)c1=O
2. Nc1nc2c(ncn2CCCc2ccccc2)c(=O)[nH]1
3. COc1c(Cl)c(=O)oc2ccc(Cl)cc12
4. CCOc1ccc(N=Nc2sc(N)nc2-c2cccc([N+](=O)[O-])c2)cc1
5. CCOC(=O)C(=NN)C(=O)OCC

1. 97 % of control
2. 94 % of control
3. 90 % of control
4. 96 % of control
5. 105 % of control

Here are 8 compounds. What values of T/C were reported for them?
1. O=C1OC(=O)C2C3c4ccccc4C(c4c3c(-c3ccccc3)c3ccccc3c4-c3ccccc3)C12 (configuration not stated)
2. Cc1cc(Br)ccc1C(=O)O
3. CC(C)(C)CC(C)(C)C1=CC(=O)C(C(C)(C)CC(C)(C)C)=CC1=O
4. C=C(Br)CNC(=O)NCC(=C)Br
5. CCCCOC(=O)c1ccc(OC(=O)Nc2ccc(C)cc2[N+](=O)[O-])cc1
6. O=c1[nH]c(/C=C/c2ccccc2)c([N+](=O)[O-])c(=O)[nH]1
7. Cc1ccccc1C1CCC(=O)OC1=O (configuration not stated)
8. O=C(O)C(/C=C/c1ccccc1)c1ccccc1 (configuration not stated)

1: 87 % of control; 2: 91 % of control; 3: 90 % of control; 4: 96 % of control; 5: 109 % of control; 6: 90 % of control; 7: 95 % of control; 8: 95 % of control

Respectfully, I request T/C for each entry included below.
1. Cc1cnc(Cl)c(Br)c1
2. CCCCCCCCCCCCCCCCOc1ccc(C(=O)CC(=O)OC)cc1
3. c1ccc2c(c1)OCC(CN1CCc3[nH]c4ccccc4c3C1)O2 (configuration not stated)
4. O=C(O)CS(=O)c1ccc(Cl)cc1 (configuration not stated)
5. CNC(=O)Oc1cccc(NC(=O)OCCCCl)c1

1: 101 % of control; 2: 89 % of control; 3: 93 % of control; 4: 88 % of control; 5: 105 % of control
